Tested on: velvetleaf (Abutilon theophrasti)
assay_protocol: Test G Pre-Emergence Protocol
Format: in vivo
reported_conditions: Abutilon theophrasti, pre-emergence, 312 h, 62.5 g ai/ha, evaluated after 13 days, 100=total damage to plant, 0=no damage to plant, read-out: plant damage rating, Velvetleaf
Consider the following compounds; for each one, report its pest or weed control at 62.5 g/ha.
Numbers only, in %.

| compound | output_unit | pest or weed control at 62.5 g/ha |
| --- | --- | --- |
| CN1C[C@@H](c2ccc(C(F)(F)F)cc2)[C@H](C(=O)Nc2c[nH]nc2C(F)(F)F)C1=O (racemic) [Compound 1535] | % | 0 |
| CN1C[C@@H](c2ccc(C(F)(F)F)cc2)[C@H](C(=O)Nc2cccnn2)C1=O (racemic) [Compound 1577] | % | 0 |

Dear reader, for each entry below, please note its pest or weed control at 62.5 g/ha.
1. CN1C[C@@H](c2cncc(Cl)c2)[C@H](C(=O)Nc2cccc(F)c2F)C1=O (racemic) [Compound 1461]
2. CN1C[C@@H](c2ccc(C(F)(F)F)cc2)[C@H](C(=O)Nc2ncccn2)C1=O (racemic) [Compound 1564]
3. CN1C[C@H](c2ccc(C(F)(F)F)cc2)[C@@H](C(=O)Nc2ncc(F)cc2F)C1=O (racemic) [Compound 1452]
4. C=CCc1ccc(Cl)cc1NC(=O)[C@H]1C(=O)N(C)C[C@@H]1c1ccc(C(F)(F)F)cc1 (racemic) [Compound 1441]
5. CN1C[C@@H](c2ccc(C(F)(F)F)cc2)[C@H](C(=O)Nc2cccc(F)c2)C1=O (racemic) [Compound 1623]

0
0
0
0
0

---

Tested on: ragweed (common ragweed, Ambrosia elatior)
assay_protocol: Test A preemergence
Format: in vivo
reported_conditions: 125 g ai/ha, Preemergence; visual injury after approximately 10 d; 0 to 100 scale where 0 is no effect and 100 is complete control
Kindly state Plant response rating, Ragweed for each of the entries shown.

Known Plant response rating, Ragweed results, listed for orientation:
| molecule | Plant response rating, Ragweed |
| --- | --- |
| O=C1NCC(c2cc(Cl)sc2Cl)C1C(=O)Nc1cccc(F)c1F (stereo not drawn) | 0 |
| CN1CC(c2ccc(F)c(F)c2)C(C(=O)Nc2ccccc2S(C)(=O)=O)C1=O (stereo not drawn) | 40 |
| O=C1NCC(c2cc(Br)cs2)C1C(=O)Nc1cccc(F)c1F (racemic) | 30 |
| CN1CC(c2cc(F)cc(F)c2)C(C(=O)Nc2ccc(F)cc2F)C1=O (stereo not drawn) | 0 |
| Cc1ccc(C2CNC(=O)C2C(=O)Nc2ccc(F)cc2F)cc1C(F)(F)F (racemic) | 0 |
| O=C1NCC(c2cccc(F)c2F)C1C(=O)Nc1ccc(F)cc1F (stereo not drawn) | 0 |
| CN1CC(c2cccc(C(F)(F)F)c2)C(C(=O)Nc2cccc(C#N)c2F)C1=O (stereo not drawn) | 20 |
| CCc1cccc(C2CN(C)C(=O)C2C(=O)Nc2cccc(F)c2F)c1 (stereo not drawn) | 20 |

Look up Plant response rating, Ragweed with ragweed (common ragweed, Ambrosia elatior) for this molecule: CN1CC(c2cc(F)cc(F)c2)C(C(=O)Nc2cccc(F)c2F)C1=O (stereo not drawn)
50

---

For each entry below, report its Plant response rating (scale of 0 to 100), Blackgrass value.
Tested on: blackgrass (Alopecurus myosuroides)
assay_protocol: Test C preemergence
Type: in vivo
reported_conditions: 31 g ai/ha, 0 is no effect, 100 is complete control
From the text: […]
Answers are plain numbers.

For orientation, consider the following solved cases.
| compound | experimental_value |
| --- | --- |
| CN1CC(c2cccc(OC(F)F)c2)C(C(=O)Nc2ccccc2S(C)(=O)=O)C1=O (stereo not shown) | 0 |
| CN1CC(c2ccc(F)c(F)c2)C(C(=O)Nc2ccccc2S(C)(=O)=O)C1=O (stereo not shown) | 0 |
| CC(C)Oc1cccc(C2CN(C)C(=O)C2C(=O)Nc2cccc(F)c2F)c1 (stereo not shown) | 40 |

Proceeding to the next compound to report its Plant response rating (scale of 0 to 100), Blackgrass.
# query: Plant response rating (scale of 0 to 100), Blackgrass | item CC(C)Oc1cccc(C2CN(C)C(=O)C2C(=O)Nc2ccccc2S(C)(=O)=O)c1 (stereo not shown) | system: blackgrass (Alopecurus myosuroides)
0

---

Tested on: pigweed (Amaranthus retroflexus)
assay_protocol: Test A postemergence
Assay type: in vivo
reported_conditions: Amaranthus retroflexus, post-emergence, 240 h, 125 g ai/ha, Postemergence; visual injury after approximately 10 d; 0 to 100 scale where 0 is no effect and 100 is complete control; read-out: Plant response rating, Pigweed
Text: […]
reported_property: pest or weed control at 125 g/ha (%)
Answers are plain numbers, in %.

| compound | pest or weed control at 125 g/ha [%] |
| --- | --- |
| CN1CC[C@H](c2cccc(Cl)c2)[C@@H](C(=O)Nc2cccc(Cl)c2F)C1=O [Compound 924] | 0 |
| CC(C)Oc1ccc([C@H]2CN(C)C(=O)[C@@H]2C(=O)Nc2cccc(F)c2F)cc1 [Compound 953] | 0 |
| CC(C)Oc1ccc([C@H]2CN(C)C(=O)[C@@H]2C(=O)Nc2ccc(F)cc2F)cc1 [Compound 954] | 0 |
| CS(=O)(=O)c1ccccc1NC(=O)[C@H]1C(=O)N(C2CC2)CC[C@@H]1c1cccc(C(F)(F)F)c1 [Compound 927] | 0 |
| O=C(Nc1cccc(Cl)c1F)[C@H]1C(=O)N(C2CC2)CC[C@@H]1c1cccc(C(F)(F)F)c1 [Compound 926] | 0 |
| CCc1ccccc1NC(=O)[C@H]1C(=O)N(C)C[C@@H]1c1ccc(C(F)(F)F)cc1 [Compound 935] | 20 |
| COc1ccc([C@H]2CN(C)C(=O)[C@@H]2C(=O)Nc2ccccc2SC)cc1C(F)(F)F [Compound 991] | 0 |
| CN1C[C@H](c2cc(F)cc(C(F)(F)F)c2)[C@@H](C(=O)Nc2cccc(Cl)c2F)C1=O [Compound 995] | 0 |

# ---- query compound ----
Which pest or weed control at 125 g/ha is listed for CC(C)Oc1ccc([C@H]2CN(C)C(=O)[C@@H]2C(=O)Nc2ccccc2F)cc1 [Compound 952] ?
0

---

Tested on: pigweed (Amaranthus retroflexus)
assay_protocol: Test C preemergence
Type: in vivo
reported_conditions: 125 g ai/ha, scale 0 to 100, 0 no effect, 100 complete control
reported_property: Plant response rating, Pigweed
One number for each entry.

| molecule | experimental_value |
| --- | --- |
| CN1CC(c2cc(F)cc(F)c2)C(C(=O)Nc2cccc(F)c2F)C1=O (stereo not drawn) [Compound 644] | 55 |

Dear colleague, could you please provide Plant response rating, Pigweed for the molecules listed below?
1. Cc1ccc(C2CN(C)C(=O)C2C(=O)Nc2ccccc2C(F)(F)F)cc1 (stereo not drawn) [Compound 665]
2. CN1CC(c2ccc(C(F)(F)F)c(F)c2)C(C(=O)Nc2cccc(F)c2F)C1=O (stereo not drawn) [Compound 396]
3. CC(C)Oc1cccc(C2CN(C)C(=O)C2C(=O)Nc2cccc(F)c2F)c1 (stereo not drawn) [Compound 651]
4. CN1CC(c2cccc(OC(F)F)c2)C(C(=O)Nc2ccc(F)cc2F)C1=O (stereo not drawn) [Compound 617]
5. CN1CC(c2ccc(F)c(F)c2)C(C(=O)Nc2ccccc2S(C)(=O)=O)C1=O (stereo not drawn) [Compound 640]

1: 50; 2: 90; 3: 50; 4: 45; 5: 70

---

System: ragweed (common ragweed, Ambrosia elatior)
assay_protocol: Test A preemergence
Format: in vivo
reported_conditions: Ambrosia artemisiifolia, pre-emergence, 240 h, 125 g ai/ha, preemergence; 0 to 100 scale where 0 is no effect and 100 is complete control; read-out: Ragweed plant response rating
reported_property: pest or weed control at 125 g/ha (%)
Numbers only, in %.

| smiles_repr | pest or weed control at 125 g/ha [%] |
| --- | --- |
| Cc1c(F)ccc([C@H]2CNC(=O)[C@@H]2C(=O)Nc2ccc(F)c(F)c2F)c1F | 0 |
| CN1C[C@H](c2cccc(F)c2)[C@@H](C(=O)Nc2ccccc2S(C)(=O)=O)C1=O | 20 |

I'm hoping you can list pest or weed control at 125 g/ha for every compound here, please.
1. COc1c(F)ccc([C@H]2CNC(=O)[C@@H]2C(=O)Nc2ccc(F)cc2F)c1Cl
2. CCc1cc([C@H]2CNC(=O)[C@@H]2C(=O)Nc2ccccc2F)cs1
3. Cc1c(F)ccc([C@H]2CN(C)C(=O)[C@@H]2C(=O)Nc2cccc(F)c2F)c1F

[0, 0, 0]

---

For each record, write down the corresponding pest or weed control at 62.5 g/ha.
System: giant foxtail (Setaria faberi)
assay_protocol: Test G Pre-Emergence Protocol
Assay type: in vivo
reported_conditions: Setaria faberi, pre-emergence, 312 h, 62.5 g ai/ha, evaluated after 13 days, 100=total damage to plant, 0=no damage to plant, read-out: Foxtail, Giant damage rating
Description: Seeds of corn (Zea mays), giant foxtail (Setaria faberi), barnyardgrass (Echinochloa crus-galli), ivy-leaved morning glory (Ipomoea hederacea), redroot pigweed (Amaranthus retroflexus) and velvetleaf (Abutilon theophrasti) were sown in standard soil in pots. […]
Answers are plain numbers, in %.

// solved cases for pest or weed control at 62.5 g/ha follow
| molecule | output_unit | experimental_value |
| --- | --- | --- |
| CN1C[C@@H](c2ccc(CO)cc2)[C@H](C(=O)Nc2cccc(F)c2F)C1=O (racemic) [Compound 1820] | % | 0 |
| CSc1ccncc1NC(=O)[C@H]1C(=O)N(C)C[C@@H]1c1cccc(C(F)(F)F)c1 (racemic) [Compound 1750] | % | 20 |
| CCCOc1cc(OC(F)(F)F)cc(C2CN(C)C(=O)C2C(=O)Nc2cccc(F)c2F)c1 (stereo not shown) [Compound 1693] | % | 50 |
| CN1C[C@H](c2cc(C(F)(F)F)cc(C(F)(F)F)c2)[C@@H](C(=O)Nc2ccccc2S(C)(=O)=O)C1=O (racemic) [Compound 1794] | % | 60 |
| C=C(C)c1cccc([C@@H]2CN(C)C(=O)[C@H]2C(=O)Nc2cccc(F)c2C)c1 (racemic) [Compound 1828] | % | 90 |
| CN1C[C@@H](c2cccc(Oc3ccc(F)cc3)c2)[C@H](C(=O)Nc2cccc(F)n2)C1=O (racemic) [Compound 1829] | % | 80 |

Attention now shifts to the item below.
Provide the documented pest or weed control at 62.5 g/ha with giant foxtail (Setaria faberi) as the system for COc1cc(F)cc(C2CN(C)C(=O)C2C(=O)Nc2cccc(F)c2F)c1 (stereo not shown) [Compound 1699]
90
